Would you kindly list IC50 for each of these compounds?
Test system: 292921-168-R-J2-PDC complex spheroid growth
Experiment: Anticancer human tumor 292921-168-R-J2-PDC patient-derived pancreatic carcinoma cell line growth inhibition [AhR]
Settings: curve of first compound; second compound 0.1 µM
Report only the number, with the unit nM understood.

What value of IC50 on 292921-168-R-J2-PDC complex spheroid growth does O=C(C=Cn1cnc(-c2cc(C(F)(F)F)cc(C(F)(F)F)c2)n1)NNc1cnccn1 + Cc1ccccc1N=Nc1ccc(NC(=O)c2ccnn2C)c(C)c1 have? 194

Another compound to check: NS(=O)(=O)OCC1CC(n2ccc3c(NC4CCc5ccccc54)ncnc32)CC1O (stereo not drawn) + Cc1ccccc1N=Nc1ccc(NC(=O)c2ccnn2C)c(C)c1 189

Another compound to check: CC[C@@]1(O)C(=O)OCc2c1cc1n(c2=O)Cc2cc3c(CN(C)C)c(O)ccc3nc2-1 + Cc1ccccc1N=Nc1ccc(NC(=O)c2ccnn2C)c(C)c1 22.9

---

System: 292921-168-R-J2-PDC complex spheroid growth
Assay: Anticancer human tumor 292921-168-R-J2-PDC cell line growth inhibition [AhR];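 also: spheroids exposed to compounds for seven days after three days of growth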
Conditions: curve of first compound; second compound 10 µM
pIC50: −log10 of the molar value.
Would you kindly list pIC50 for each of these compounds?

Given COc1cccc2c1C(=O)c1c(O)c3c(c(O)c1C2=O)CC(O)(C(=O)CO)CC3OC1CC(N)C(O)C(C)O1 (stereo not drawn) + CC(CO)NC(=O)c1cc(-c2ccc(Cl)cc2)nn(-c2cnn(C)c2)c1=O , state its recorded pIC50. > 7.50

Another compound to check: CC1(C)CCC(CN2CCN(c3ccc(C(=O)NS(=O)(=O)c4ccc(NCC5CCOCC5)c([N+](=O)[O-])c4)c(Oc4cnc5[nH]ccc5c4)c3)CC2)=C(c2ccc(Cl)cc2)C1 + Cc1ccccc1N=Nc1ccc(NC(=O)c2ccnn2C)c(C)c1 5.33

Another compound to check: COc1cccc2c1C(=O)c1c(O)c3c(c(O)c1C2=O)CC(O)(C(=O)CO)CC3OC1CC(N)C(O)C(C)O1 (stereo not drawn) + Cc1cncc(-c2nc(NCCc3c[nH]c4ccccc34)c3ncn(C(C)C)c3n2)c1 > 7.50

Another compound to check: COc1cc(C2c3cc4c(cc3C(OC3OC5COC(C)OC5C(O)C3O)C3COC(=O)C23)OCO4)cc(OC)c1O (stereo not drawn) + Cc1cncc(-c2nc(NCCc3c[nH]c4ccccc34)c3ncn(C(C)C)c3n2)c1 > 7.50

Another compound to check: CC1COCCN1c1cc(-c2ccnn2C)c2ccnc(-c3ccn[nH]3)c2n1 (stereo not drawn) + CC(CO)NC(=O)c1cc(-c2ccc(Cl)cc2)nn(-c2cnn(C)c2)c1=O 7.99

Another compound to check: O=C(C=Cn1cnc(-c2cc(C(F)(F)F)cc(C(F)(F)F)c2)n1)NNc1cnccn1 + CC(CO)NC(=O)c1cc(-c2ccc(Cl)cc2)nn(-c2cnn(C)c2)c1=O 7.30

Another compound to check: Nc1ncn(C2CC(O)C(CO)S2)c(=O)n1 (stereo not drawn) + Cc1ccccc1N=Nc1ccc(NC(=O)c2ccnn2C)c(C)c1 < 6.52

Another compound to check: O=C(c1cc(Cc2n[nH]c(=O)c3ccccc23)ccc1F)N1CCN(C(=O)C2CC2)CC1 + Cc1cncc(-c2nc(NCCc3c[nH]c4ccccc34)c3ncn(C(C)C)c3n2)c1 > 7.50

Another compound to check: CC1COCCN1c1cc(C2(S(C)(=N)=O)CC2)nc(-c2ccnc3[nH]ccc23)n1 (stereo not drawn) + Cc1cncc(-c2nc(NCCc3c[nH]c4ccccc34)c3ncn(C(C)C)c3n2)c1 7.50

Another compound to check: Nc1ccn(C2OC(CO)C(O)C2(F)F)c(=O)n1 (stereo not drawn) + CC(CO)NC(=O)c1cc(-c2ccc(Cl)cc2)nn(-c2cnn(C)c2)c1=O > 7.50

Another compound to check: COc1cc(Nc2ncc3c(n2)-c2ccc(Cl)cc2C(c2c(F)cccc2OC)=NC3)ccc1C(=O)O + Cc1ccccc1N=Nc1ccc(NC(=O)c2ccnn2C)c(C)c1 > 7.50

Another compound to check: COc1ccc([C@@H](O)c2cc(-c3ncnc4cc(N5CCOCC5)ccc34)c(F)cc2Cl)nn1 + Cc1cncc(-c2nc(NCCc3c[nH]c4ccccc34)c3ncn(C(C)C)c3n2)c1 > 7.50

Another compound to check: O=C(C=Cc1cccc(S(=O)(=O)Nc2ccccc2)c1)NO + CC(CO)NC(=O)c1cc(-c2ccc(Cl)cc2)nn(-c2cnn(C)c2)c1=O > 7.50

Another compound to check: Nc1ccccc1NC(=O)c1ccc(CNC(=O)OCc2cccnc2)cc1 + CC(CO)NC(=O)c1cc(-c2ccc(Cl)cc2)nn(-c2cnn(C)c2)c1=O > 7.50

Another compound to check: CC1(C)CCC(CN2CCN(c3ccc(C(=O)NS(=O)(=O)c4ccc(NCC5CCOCC5)c([N+](=O)[O-])c4)c(Oc4cnc5[nH]ccc5c4)c3)CC2)=C(c2ccc(Cl)cc2)C1 + Cc1cncc(-c2nc(NCCc3c[nH]c4ccccc34)c3ncn(C(C)C)c3n2)c1 5.48

Another compound to check: Nc1ncn(C2CC(O)C(CO)S2)c(=O)n1 (stereo not drawn) + CC(CO)NC(=O)c1cc(-c2ccc(Cl)cc2)nn(-c2cnn(C)c2)c1=O < 6.52

Another compound to check: CC[C@@]1(O)C(=O)OCc2c1cc1n(c2=O)Cc2cc3c(CN(C)C)c(O)ccc3nc2-1 + Cc1ccccc1N=Nc1ccc(NC(=O)c2ccnn2C)c(C)c1 7.90

Another compound to check: NS(=O)(=O)OCC1CC(n2ccc3c(NC4CCc5ccccc54)ncnc32)CC1O (stereo not drawn) + Cc1cncc(-c2nc(NCCc3c[nH]c4ccccc34)c3ncn(C(C)C)c3n2)c1 6.66

Another compound to check: CC(C)CC(NC(=O)C(Cc1ccccc1)NC(=O)c1cnccn1)B(O)O (stereo not drawn) + CC(CO)NC(=O)c1cc(-c2ccc(Cl)cc2)nn(-c2cnn(C)c2)c1=O 8.35

Another compound to check: CC(C)c1c(-c2ccccc2)nc2c(C#N)c[nH]n2c1=O + CC(CO)NC(=O)c1cc(-c2ccc(Cl)cc2)nn(-c2cnn(C)c2)c1=O < 5.00

Another compound to check: CC(C)CC(NC(=O)C(Cc1ccccc1)NC(=O)c1cnccn1)B(O)O (stereo not drawn) + Cc1ccccc1N=Nc1ccc(NC(=O)c2ccnn2C)c(C)c1 8.40

Another compound to check: Cn1ncnc1C1c2n[nH]c(=O)c3cc(F)cc(c23)NC1c1ccc(F)cc1 (stereo not drawn) + Cc1ccccc1N=Nc1ccc(NC(=O)c2ccnn2C)c(C)c1 < 7.00

Another compound to check: COc1cc(Nc2ncc3c(n2)-c2ccc(Cl)cc2C(c2c(F)cccc2OC)=NC3)ccc1C(=O)O + Cc1cncc(-c2nc(NCCc3c[nH]c4ccccc34)c3ncn(C(C)C)c3n2)c1 > 7.50

---

Would you kindly list viability, T/C for each of these compounds?
System: 292921-168-R-J2-PDC complex spheroid growth
Experiment: Anticancer human tumor 292921-168-R-J2-PDC cell line growth inhibition [AhR];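 also: spheroids exposed to compounds for seven days after three days of growth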
Conditions: second compound 1 µM; first compound 0.316 µM; stronger effect = lower value
Report only the number, with the unit % understood.

Given COc1cccc2c1C(=O)c1c(O)c3c(c(O)c1C2=O)CC(O)(C(=O)CO)CC3OC1CC(N)C(O)C(C)O1 (stereo unspecified) + CC(CO)NC(=O)c1cc(-c2ccc(Cl)cc2)nn(-c2cnn(C)c2)c1=O , state its recorded viability, T/C. 8.6

Another compound to check: COc1cc(C2c3cc4c(cc3C(OC3OC5COC(C)OC5C(O)C3O)C3COC(=O)C23)OCO4)cc(OC)c1O (stereo unspecified) + Cc1cncc(-c2nc(NCCc3c[nH]c4ccccc34)c3ncn(C(C)C)c3n2)c1 48.9

Another compound to check: COc1cccc2c1C(=O)c1c(O)c3c(c(O)c1C2=O)CC(O)(C(=O)CO)CC3OC1CC(N)C(O)C(C)O1 (stereo unspecified) + Cc1cncc(-c2nc(NCCc3c[nH]c4ccccc34)c3ncn(C(C)C)c3n2)c1 9.15

Another compound to check: O=C(C=Cc1cccc(S(=O)(=O)Nc2ccccc2)c1)NO + CC(CO)NC(=O)c1cc(-c2ccc(Cl)cc2)nn(-c2cnn(C)c2)c1=O 46.5

Another compound to check: O=C(C=Cc1cccc(S(=O)(=O)Nc2ccccc2)c1)NO + Cc1ccccc1N=Nc1ccc(NC(=O)c2ccnn2C)c(C)c1 54.8

Another compound to check: CC1COCCN1c1cc(-c2ccnn2C)c2ccnc(-c3ccn[nH]3)c2n1 (stereo unspecified) + Cc1cncc(-c2nc(NCCc3c[nH]c4ccccc34)c3ncn(C(C)C)c3n2)c1 18.7

---

System: 292921-168-R-J2-PDC complex spheroid growth
Test: Anticancer human tumor 292921-168-R-J2-PDC cell line growth inhibition [AhR]; active means viability on the fitted dose curve at most 10% of control; inactive means the rest;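 also: spheroids exposed to compounds for seven days after three days of growth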
Conditions: second compound 0.316 µM; first compound 0.316 µM
I would appreciate it if you answered using one of these outcomes: Yes (active), No (inactive)

So what was the verdict on NS(=O)(=O)OCC1CC(n2ccc3c(NC4CCc5ccccc54)ncnc32)CC1O (configuration not stated) + CC(CO)NC(=O)c1cc(-c2ccc(Cl)cc2)nn(-c2cnn(C)c2)c1=O in this test? No

Another molecule to check: CC(C)c1c(-c2ccccc2)nc2c(C#N)c[nH]n2c1=O + Cc1cncc(-c2nc(NCCc3c[nH]c4ccccc34)c3ncn(C(C)C)c3n2)c1 No

Another molecule to check: COc1cccc2c1C(=O)c1c(O)c3c(c(O)c1C2=O)CC(O)(C(=O)CO)CC3OC1CC(N)C(O)C(C)O1 (configuration not stated) + Cc1ccccc1N=Nc1ccc(NC(=O)c2ccnn2C)c(C)c1 Yes

Another molecule to check: COc1cc(C2c3cc4c(cc3C(OC3OC5COC(C)OC5C(O)C3O)C3COC(=O)C23)OCO4)cc(OC)c1O (configuration not stated) + CC(CO)NC(=O)c1cc(-c2ccc(Cl)cc2)nn(-c2cnn(C)c2)c1=O No

Another molecule to check: Nc1ccn(C2OC(CO)C(O)C2(F)F)c(=O)n1 (configuration not stated) + Cc1ccccc1N=Nc1ccc(NC(=O)c2ccnn2C)c(C)c1 Yes

Another molecule to check: O=C(c1cc(Cc2n[nH]c(=O)c3ccccc23)ccc1F)N1CCN(C(=O)C2CC2)CC1 + CC(CO)NC(=O)c1cc(-c2ccc(Cl)cc2)nn(-c2cnn(C)c2)c1=O No

Another molecule to check: COc1cc(Nc2ncc3c(n2)-c2ccc(Cl)cc2C(c2c(F)cccc2OC)=NC3)ccc1C(=O)O + Cc1ccccc1N=Nc1ccc(NC(=O)c2ccnn2C)c(C)c1 No

Another molecule to check: CC1COCCN1c1cc(-c2ccnn2C)c2ccnc(-c3ccn[nH]3)c2n1 (configuration not stated) + CC(CO)NC(=O)c1cc(-c2ccc(Cl)cc2)nn(-c2cnn(C)c2)c1=O No

Another molecule to check: COc1cc(C2c3cc4c(cc3C(OC3OC5COC(C)OC5C(O)C3O)C3COC(=O)C23)OCO4)cc(OC)c1O (configuration not stated) + Cc1ccccc1N=Nc1ccc(NC(=O)c2ccnn2C)c(C)c1 No

Another molecule to check: COc1cccc2c1C(=O)c1c(O)c3c(c(O)c1C2=O)CC(O)(C(=O)CO)CC3OC1CC(N)C(O)C(C)O1 (configuration not stated) + Cc1cncc(-c2nc(NCCc3c[nH]c4ccccc34)c3ncn(C(C)C)c3n2)c1 Yes

Another molecule to check: O=C(C=Cc1cccc(S(=O)(=O)Nc2ccccc2)c1)NO + Cc1ccccc1N=Nc1ccc(NC(=O)c2ccnn2C)c(C)c1 No

Another molecule to check: Nc1ncn(C2CC(O)C(CO)O2)c(=O)n1 (configuration not stated) + CC(CO)NC(=O)c1cc(-c2ccc(Cl)cc2)nn(-c2cnn(C)c2)c1=O No
